test: NIH:OVCAR-3 ovarian cancer cell cytotoxicity, dose response, PAX8 inhibitor project, plate reader, dry powder samples (AID 743044); conditions: NIH:OVCAR-3 ovarian cancer cell viability; at 35 µM, stronger effect = lower value unless noted
Results with a measured potency or affinity are listed apart. Results filed as inconclusive are left out. Calls of active or inactive are those of the source. No rule for the calls is given here.
ENDPOINT: max activity

Illustrative cases are given below, each with its answer.
Cc1ccc(S(=O)(=O)N(C)C[C@@H]2OCCCC[C@H](C)Oc3ccc(NS(=O)(=O)c4ccc(F)cc4)cc3C(=O)N([C@H](C)CO)C[C@H]2C)cc1 = -6.55% (inactive)
C[C@H]1CCCCO[C@H](CN(C)C(=O)Nc2ccc(C(F)(F)F)cc2)[C@@H](C)CN([C@@H](C)CO)C(=O)c2cc(NS(=O)(=O)c3cccs3)ccc2O1 = -51.4% (inactive)
C[C@@H]1CCCCO[C@@H](CN(C)C(=O)C2CCCCC2)[C@H](C)CN([C@@H](C)CO)C(=O)c2cc(NS(=O)(=O)c3ccc(Cl)cc3)ccc2O1 = -23.1% (inactive)

Entry C[C@@H]1CN([C@@H](C)CO)C(=O)Cc2cc(NC(=O)NC3CCCCC3)ccc2O[C@@H]1CN(C)Cc1ccc(-c2ccccc2)cc1 , max activity reported as 0% [stronger effect = lower value] (inactive)

Entry C[C@@H]1CN([C@@H](C)CO)C(=O)Cc2cc(NC(=O)Cc3ccccc3)ccc2O[C@H]1CN(C)Cc1ccc(-c2ccccc2)cc1 , max activity reported as -33% (inactive)

Entry CC=Cc1ccc2n(c1=O)C[C@H]1[C@H](CO)[C@@H](C(=O)NC3CCC3)N(CC)[C@@H]21 (mixture of isomers) , max activity reported as 9.45% (inactive)

Entry C[C@H]1CCCCO[C@@H](CN(C)Cc2ccc(C(=O)O)cc2)[C@@H](C)CN([C@@H](C)CO)C(=O)c2cc(NS(=O)(=O)c3ccc(Cl)cc3)ccc2O1 , max activity reported as 4.48% (inactive)

Entry O=C(C[C@H]1CC[C@@H]2[C@H](COC[C@@H](O)CN2S(=O)(=O)c2cccc(Cl)c2)O1)Nc1ccc(-c2ccccc2)cc1 , max activity reported as -18.4% (inactive)

Entry CN1c2ccc(-c3cccc(F)c3)cc2[C@@H]2[C@@H](CCN2C(=O)Cc2ccccc2)[C@@H]1CO , max activity reported as 21.5% (inactive)

----------
biological target: Luciferin 4-monooxygenase (Photinus pyralis) (UniProt P08659); assay: firefly luciferase enzyme inhibitors, primary screen, biochemical, luminescence, purified enzyme, 2006 set (AID 1141); details: SteadyGlo luminescence, 30 min, higher = more signal, called active from +8 up or from −8 down;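 also: cell-free assay with purified firefly luciferase at 100 ng per well in PBS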
Sequence (P08659 whole entry, looked up): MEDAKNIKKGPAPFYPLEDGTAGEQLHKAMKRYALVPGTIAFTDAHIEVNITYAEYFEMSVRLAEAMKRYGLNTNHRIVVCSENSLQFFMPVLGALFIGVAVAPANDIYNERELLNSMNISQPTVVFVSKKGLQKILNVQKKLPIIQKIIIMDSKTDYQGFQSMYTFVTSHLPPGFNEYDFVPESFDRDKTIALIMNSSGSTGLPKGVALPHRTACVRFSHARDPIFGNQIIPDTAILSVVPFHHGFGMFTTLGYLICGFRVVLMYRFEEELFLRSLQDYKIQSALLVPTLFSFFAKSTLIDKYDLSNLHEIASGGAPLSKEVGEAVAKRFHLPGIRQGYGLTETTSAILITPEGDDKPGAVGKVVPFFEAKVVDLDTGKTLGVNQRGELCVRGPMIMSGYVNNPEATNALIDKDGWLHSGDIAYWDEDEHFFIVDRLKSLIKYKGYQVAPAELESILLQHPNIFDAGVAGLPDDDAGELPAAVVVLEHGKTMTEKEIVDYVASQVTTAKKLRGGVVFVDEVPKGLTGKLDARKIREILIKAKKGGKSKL
The source made the active and inactive calls.
Recorded z-score for the following compounds

Illustrative cases are given below, each with its answer.
C=CC[C@]1(C(=O)N(C)C)N=C(c2ccc(OCCCO)cc2)O[C@H]1c1ccccc1CN=[N+]=[N-] = -1.12 (inactive)
CCCCCCC#C[Si](O[C@H](c1ccccc1)c1cn(Cc2ccccc2)nn1)(C(C)C)C(C)C = -1.15 (inactive)
C=CCC(OC(C)=O)[C@@H]1[C@@H](N(Cc2cccc3ccccc23)C(=O)Cc2ccc(OC)cc2)c2cc(OCCCO)ccc2N1C(=O)Cc1ccc(OC)cc1 (stereo partly specified) = -0.369 (inactive)
COCCOC(=O)N1C(=O)[C@@]2(c3cc(C#CCNC(N)=O)ccc31)[C@H](c1ccccc1OCCO)N1[C@H](c3ccccc3)[C@H](c3ccccc3)OC(=O)[C@H]1[C@@H]2C(=O)Nc1nc2ccccc2s1 = -1.87 (inactive)
COC(=O)C(CC#Cc1ccc2c(c1)[C@]1(C(=O)N2)[C@H](C(N)=O)[C@H]2C(=O)O[C@H](c3ccccc3)[C@H](c3ccccc3)N2[C@@H]1c1ccc(O)cc1)C(=O)OC = -1.43 (inactive)

Entry O=C1N(CCS(=O)(=O)c2ccccc2)Cc2ccccc2[C@@H]2OC(c3ccc(OCCCO)cc3)=N[C@]12Cc1ccccc1 , z-score reported as -2.12 (inactive)

----------
target: NADPH oxidase 2 (Homo sapiens) (UniProt P04839); assay: NOX2-dependent H2O2 signal modulators, primary screen, NOX inhibitor project, cell-based, HEK293-NOX2, PMA-stimulated, Amplex Red fluorescence (AID 1159); conditions: 45 min, higher = more signal, called active from +8 up or from −8 down
Sequence (P04839 whole entry, looked up): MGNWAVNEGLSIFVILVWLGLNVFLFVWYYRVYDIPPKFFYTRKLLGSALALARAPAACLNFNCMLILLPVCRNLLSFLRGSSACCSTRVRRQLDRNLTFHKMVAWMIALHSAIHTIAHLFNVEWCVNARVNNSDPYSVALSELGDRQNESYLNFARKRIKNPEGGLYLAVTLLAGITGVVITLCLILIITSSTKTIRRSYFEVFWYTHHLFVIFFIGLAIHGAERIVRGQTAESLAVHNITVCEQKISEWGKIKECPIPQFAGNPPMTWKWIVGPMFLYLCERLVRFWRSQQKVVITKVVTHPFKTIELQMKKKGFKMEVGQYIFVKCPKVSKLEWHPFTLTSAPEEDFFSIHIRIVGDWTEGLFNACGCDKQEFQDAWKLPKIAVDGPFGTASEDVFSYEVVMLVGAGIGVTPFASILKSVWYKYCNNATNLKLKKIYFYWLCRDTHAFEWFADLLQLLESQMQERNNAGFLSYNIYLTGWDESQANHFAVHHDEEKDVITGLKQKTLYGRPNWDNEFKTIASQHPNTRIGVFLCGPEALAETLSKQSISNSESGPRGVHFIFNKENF
ENDPOINT: z-score
Please respond with just the number, no unit label.

Illustrative cases are given below, each with its answer.
O=C1c2ccccc2[C@@]2(Cc3ccccc3N(CC(F)(F)F)C2=O)[C@H](c2ccc(CO)cc2)N1Cc1ccccc1C(F)(F)F = 0.0968
CCCNC(=O)[C@@H]1c2ccccc2C(=O)N(Cc2cc(C(F)(F)F)cc(C(F)(F)F)c2)[C@H]1c1ccc(CO)cc1 = 0.602
C[C@@H](OCc1ccccc1)C1NC(=O)[C@@]23C(=O)N[C@@H](Cc4ccccc4)C2[C@H](C)[C@@]2(C)O[C@H]2C3/C=C/C/C=C\CNC(=O)[C@@H]2CCCN2C1=O (some centres not stated) = -0.0597
O=c1n(-c2ccccc2)c(=O)n2n1CC(COc1ccccc1)=C1[C@@H](CCc3ccccc3)OB(O)C[C@@H]12 = -0.513
O=C(NCC(F)(F)F)[C@@H]1c2ccccc2C(=O)N(C2Cc3ccccc3C2)[C@H]1c1ccc(CO)cc1 = 0.207

Entry CC(C)(C)OC(=O)CC[C@@]12N=C(c3ccc(OCCCO)cc3)O[C@@H]1c1ccccc1N(Cc1ccccc1)C2=O : z-score on NADPH oxidase 2 (Homo sapiens) (UniProt P04839) = 1.56

Entry O=C1O[C@H](c2ccccc2)[C@H](c2ccccc2)N2[C@H]1[C@@H](C(=O)NC[C@H](O)c1ccccc1)[C@]1(C(=O)Nc3ccc(C#CC4(O)CCCCCC4)cc31)[C@H]2c1ccc(O)cc1 : z-score on NADPH oxidase 2 (Homo sapiens) (UniProt P04839) = 1.68

----------
test: adipocyte viability effects, profiling panel, cell-based, 3T3-L1 adipocytes, calcein-AM fluorescence, 48 h, basal (AID 1163); details: 3T3-L1 adipocytes viability, higher = more signal
Recorded z-score for the following compounds

Entry [N-]=[N+]=NCc1ccccc1C[C@@]1(C(=O)NCc2ccccc2)N=C(c2ccc(OCCCO)cc2)O[C@@H]1c1ccccc1 , z-score reported as 0.904

Entry O=C(NCc1ccccc1)[C@@H]1c2ccccc2C(=O)N(Cc2ccccc2Cl)[C@H]1c1ccc(CO)cc1 , z-score reported as 1.23

Entry COc1ccc([Si](C)(C)[C@H]2[C@H](CC(=O)N(CCO)Cc3ccccc3)O[C@@]3(C(=O)N(Cc4cccc(N5C(=O)COc6ccccc65)c4)c4ccccc43)[C@@H]2C)cc1 , z-score reported as 0.446

Entry CC(C)C(=C=CC[C@@H](O)c1ccc(CO)o1)CCO , z-score reported as -0.266

Entry C=C(CCCC)/C(=C/C[C@@H](OC(=O)c1ccncc1)c1ccc(OCCO)cc1)c1cnc2ccccc2c1 , z-score reported as 1.56

Entry COC(=O)[C@@]1(CCC(=O)OC(C)(C)C)COC(c2ccc(OCCCO)cc2)=N1 , z-score reported as 1.52

Entry C=CCOC(=O)[C@H]1[C@@H]2C(=O)O[C@@H](c3ccccc3)[C@@H](c3ccccc3)N2[C@@H](c2ccc(OCCOC(=O)[C@H]3C[C@H]4C(=O)N5CCC[C@H]5C(=O)N4[C@H]3c3cccc(OCCO)c3)cc2)[C@]12C(=O)Nc1ccccc12 , z-score reported as 1.19

Entry CC(C)C(CO)N1C(=O)[C@@H]2C3C(=O)OCCC/C=C\[C@H]3OC23C=CCN(C(C)C)C(=O)[C@@H]13 (stereo partly specified) , z-score reported as 0.492

Entry C/C=C/[C@@H](CCn1cc(CCO[Si](C(C)C)(C(C)C)C(C)C)nn1)[Si](C)(C)c1ccc(OC)cc1 , z-score reported as 0.925

Entry C=CCC(OC(C)=O)[C@@H]1[C@@H](N(Cc2ccc(-c3ccccc3)cc2)C(=O)c2ccc(-c3ccccc3)cc2)c2cc(OCCCO)ccc2N1C(=O)c1ccc(-c2ccccc2)cc1 (stereo partly specified) , z-score reported as 0.948

Entry C=C(C(=O)CC[C@H](OC(C)=O)c1ccc(CO)o1)C(C)C , z-score reported as 2.11

Entry C=CC[C@]1(C(=O)N(C)C)N=C(c2ccc(OCCCO)cc2)O[C@H]1c1ccccc1CN=[N+]=[N-] , z-score reported as 0.988

Entry COC(=O)C(CC#Cc1ccc2c(c1)[C@]1(C(=O)N2)[C@H](C(=O)O)[C@H]2C(=O)O[C@H](c3ccccc3)[C@H](c3ccccc3)N2[C@@H]1c1ccc(OCCO)cc1)C(=O)OC , z-score reported as 0.313

----------
target: Neurogenic locus notch homolog protein 3 (Homo sapiens) (UniProt Q9UM47); assay: NOTCH3 binders on small-molecule microarray, primary screen, biochemical, 635/667 nm fluorescence (AID 1096); details: NOTCH3 binding, 635 nm fluorescence, higher = more signal
Sequence (Q9UM47 whole entry, looked up): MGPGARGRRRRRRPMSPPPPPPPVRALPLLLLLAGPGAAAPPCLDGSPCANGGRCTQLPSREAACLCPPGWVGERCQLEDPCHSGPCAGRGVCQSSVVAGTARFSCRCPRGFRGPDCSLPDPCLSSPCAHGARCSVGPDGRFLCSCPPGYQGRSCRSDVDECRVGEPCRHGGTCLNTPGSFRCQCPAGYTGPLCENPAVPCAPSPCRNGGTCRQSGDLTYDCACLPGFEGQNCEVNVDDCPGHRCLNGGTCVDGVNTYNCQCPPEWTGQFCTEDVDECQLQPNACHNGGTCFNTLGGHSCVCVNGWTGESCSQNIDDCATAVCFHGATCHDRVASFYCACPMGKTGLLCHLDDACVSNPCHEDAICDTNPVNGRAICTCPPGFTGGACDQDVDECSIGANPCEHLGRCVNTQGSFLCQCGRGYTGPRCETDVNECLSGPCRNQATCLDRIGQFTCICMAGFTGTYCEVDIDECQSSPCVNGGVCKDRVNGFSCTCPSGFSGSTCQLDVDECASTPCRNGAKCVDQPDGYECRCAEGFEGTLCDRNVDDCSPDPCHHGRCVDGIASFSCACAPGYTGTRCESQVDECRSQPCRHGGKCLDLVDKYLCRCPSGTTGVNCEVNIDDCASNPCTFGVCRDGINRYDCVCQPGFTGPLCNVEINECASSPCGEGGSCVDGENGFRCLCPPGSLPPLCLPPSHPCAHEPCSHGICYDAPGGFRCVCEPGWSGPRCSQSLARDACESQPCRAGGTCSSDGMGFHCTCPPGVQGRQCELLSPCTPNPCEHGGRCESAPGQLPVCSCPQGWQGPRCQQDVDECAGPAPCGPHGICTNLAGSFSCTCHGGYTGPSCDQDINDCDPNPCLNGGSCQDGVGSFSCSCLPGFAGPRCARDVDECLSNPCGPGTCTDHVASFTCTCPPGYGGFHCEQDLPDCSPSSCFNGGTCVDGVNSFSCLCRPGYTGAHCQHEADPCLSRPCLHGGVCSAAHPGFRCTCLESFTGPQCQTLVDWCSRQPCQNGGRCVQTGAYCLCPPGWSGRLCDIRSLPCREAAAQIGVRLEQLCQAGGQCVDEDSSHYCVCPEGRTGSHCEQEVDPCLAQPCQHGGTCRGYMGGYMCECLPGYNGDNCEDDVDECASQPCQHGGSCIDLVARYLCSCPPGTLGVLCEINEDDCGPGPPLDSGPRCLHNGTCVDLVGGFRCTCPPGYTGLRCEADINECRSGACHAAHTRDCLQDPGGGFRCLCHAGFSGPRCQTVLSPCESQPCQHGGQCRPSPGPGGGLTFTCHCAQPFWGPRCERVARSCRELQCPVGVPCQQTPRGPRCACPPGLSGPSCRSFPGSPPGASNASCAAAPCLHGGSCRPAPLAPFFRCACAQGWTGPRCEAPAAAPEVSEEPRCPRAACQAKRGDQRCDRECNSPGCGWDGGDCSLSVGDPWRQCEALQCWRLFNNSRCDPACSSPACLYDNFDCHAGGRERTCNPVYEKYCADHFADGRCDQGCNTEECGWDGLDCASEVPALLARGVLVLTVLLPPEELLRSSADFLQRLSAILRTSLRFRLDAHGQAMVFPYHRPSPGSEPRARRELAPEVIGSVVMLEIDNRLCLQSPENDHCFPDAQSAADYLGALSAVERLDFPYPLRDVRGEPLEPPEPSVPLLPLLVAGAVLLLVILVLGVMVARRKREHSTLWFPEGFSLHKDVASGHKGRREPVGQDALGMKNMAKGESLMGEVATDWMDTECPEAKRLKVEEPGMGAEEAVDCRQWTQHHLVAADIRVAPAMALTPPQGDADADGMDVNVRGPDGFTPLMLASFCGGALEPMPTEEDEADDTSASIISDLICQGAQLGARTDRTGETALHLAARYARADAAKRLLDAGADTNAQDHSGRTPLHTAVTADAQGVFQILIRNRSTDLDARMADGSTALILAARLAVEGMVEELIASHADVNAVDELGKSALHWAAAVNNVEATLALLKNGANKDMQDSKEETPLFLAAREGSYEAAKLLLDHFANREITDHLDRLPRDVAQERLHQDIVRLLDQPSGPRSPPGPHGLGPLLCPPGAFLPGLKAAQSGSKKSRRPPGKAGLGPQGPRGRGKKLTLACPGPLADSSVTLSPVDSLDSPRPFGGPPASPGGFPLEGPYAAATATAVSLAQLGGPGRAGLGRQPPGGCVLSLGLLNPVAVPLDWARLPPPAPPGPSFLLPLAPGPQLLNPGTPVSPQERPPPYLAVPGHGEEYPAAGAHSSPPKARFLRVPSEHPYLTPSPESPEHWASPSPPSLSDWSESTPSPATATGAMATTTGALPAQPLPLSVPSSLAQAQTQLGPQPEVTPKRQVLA
Categorized via composite z-score: low band = under -0.3, middle band = from -0.3 up to 0.7, high band = 0.7 and over

Solved entries:
COc1ccc(C(=O)Nc2cccc(CN3C(=O)[C@@]4(O[C@@H](CCO)[C@H]([Si](C)(C)c5ccc(OC)cc5)[C@H]4C)c4ccccc43)c2)cc1 = middle band
O=C1O[C@H](c2ccccc2)[C@H](c2ccccc2)N2[C@H]1[C@@H](C(=O)Nc1nc3ccccc3s1)[C@]1(C(=O)Nc3ccc(C#CCCO)cc31)[C@H]2c1ccccc1OCCO = high band
[N-]=[N+]=NCc1ccccc1C[C@@]1(C(=O)O)N=C(c2ccc(OCCCO)cc2)O[C@@H]1c1ccccc1 = low band
CN1C=C(C(=O)OCCS(C)(=O)=O)C(C(=O)OCCS(C)(=O)=O)=CC(CCCO)=CC1c1cccs1 (stereo not given) = high band
C=CCNC(=O)[C@H]1[C@@H]2C(=O)O[C@@H](c3ccccc3)[C@@H](c3ccccc3)N2[C@@H](c2ccc(OCCO)cc2)[C@]12C(=O)Nc1ccc(C#CCCO)cc12 = high band
C=CCC1(CC=C)C[C@H]2CO[C@H](c3ccc(OC)cc3)N2C1=O = low band
COC(=O)c1c(CC[C@@H](CO)NC(=O)Nc2ccc(OC)cc2)oc(C(=O)Cc2ccccc2)c1C(=O)OC = middle band
COCCOC(=O)N1C(=O)[C@@]2(c3cc(C#CCNC(N)=O)ccc31)[C@H](c1ccccc1OCCO)N1[C@H](c3ccccc3)[C@H](c3ccccc3)OC(=O)[C@H]1[C@@H]2C(=O)Nc1nc2ccccc2s1 = high band

Hey, which category is CO[C@H]1O[C@H](CO)[C@@H](OC(=O)CCc2ccccc2)[C@@H]2OC(=O)[C@H](Cc3ccccc3)C/C=C/C[C@@H](Cc3ccccc3)C(=O)O[C@@H]12 in, do you know?
middle band

Hey, which category is CCCCC(=C=CC[C@H](O)c1cccc(OCCO)c1)CCO in, do you know?
low band

Hey, which category is CC(C)(C)OC(=O)CC[C@]1(C(=O)NCc2ccccc2)COC(c2ccc(OCCCO)cc2)=N1 in, do you know?
middle band

Hey, which category is COCCOC(=O)N1C(=O)[C@@]2(c3ccccc31)[C@H](C(=O)Nc1nc3ccccc3s1)[C@H]1C(=O)O[C@H](c3ccccc3)[C@H](c3ccccc3)N1[C@@H]2c1ccc(O)cc1 in, do you know?
high band

Hey, which category is CC1CC/C=C\[C@H]2OC34C=CCN(C(C)C)C(=O)[C@H]3N(C(CO)C(C)C)C(=O)[C@@H]4C2C(=O)O1 (stereo not given in full) in, do you know?
middle band

Hey, which category is NC(=O)N1C(=O)C2C(C1=O)C1C=C(c3ccc(CO)cc3)C2C(C2CC2)N1Cc1cc2c(cc1Br)OCO2 (stereo not given) in, do you know?
middle band

Hey, which category is COC(=O)C1=CC(c2ccc(CO)cc2)=CC(C2CC2)N(C)C=C1C(=O)OC (stereo not given) in, do you know?
low band
